All values here come from the supplement of paper PMC6755084.

Tested on: F1*sub RNA substrate (template-directed ligation)
protocol.notes: fraction ligated after 30 min (ligated reads / total reads); higher = more ligase activity; sequences stand for … in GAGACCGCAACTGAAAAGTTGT…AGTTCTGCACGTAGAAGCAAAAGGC
condition.label: 42 °C
# label = rule met if fraction ligated >= 0.6 else rule not met

TATCACTGTCGTAAGAACTTTGGAGGGTTGA [3d1422]
rule not met

# evaluate next
Say whether TATCACTTGTCGTAAGACATTTGGAGGGTTA [3d2225] shows fraction ligated of 0.6 or more. rule not met

----------
System: F1*sub RNA substrate (template-directed ligation)
protocol.notes: fraction ligated after 30 min (ligated reads / total reads); higher = more ligase activity; sequences stand for … in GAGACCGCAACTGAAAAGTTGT…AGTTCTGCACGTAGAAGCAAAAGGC
condition.label: 42 °C
measured.metric: fraction ligated
The answer should be a number; do not append a unit.

# count of solved cases: 5
TATCACTTTCGTAAGACCTTTGGATGGTTGA [3d1551]
0.0784
TATCACTTGTCTAAACACTTTGATGGGTTGA [3d1840]
0.753
TTCACTTGTGTAAGACATTTGGATGGGTTGA [3d394]
0.778
TATCACTTGTTAAGACCTTTGGATGGGTTGA [3d1709]
0.785
TTCATTTCGTAAGACACTTTGGATGGGTTGA [3d318]
0.104

Fill blank: measured fraction ligated of the sequence TATCACTTGTCGTAAGCACTGGATGGGTTGA [3d2128] is ____. 0.771
